# procedureDetails: Clinical DDI study U107
# Type: in vivo, human
# details: human, plasma, oral, 100 mg, t1/2, 100 mg alone, 2 h following a full meal (sequence AC, treatment A); arithmetic mean (SD)
reportedProperty: half-life (h)

chemicalString: CC1(C)CCC2(CC1)N[C@@H](C(=O)N[C@@H]1CC[C@@H](C(N)=O)OC1)[C@H](c1ccnc(Cl)c1F)[C@]21C(=O)Nc2cc(Cl)ccc21
unitsLabel: h
valueMeasured: 21.3

* * *

# assaySystem: P-gp (Homo sapiens)
# Sequence (P08183 whole entry): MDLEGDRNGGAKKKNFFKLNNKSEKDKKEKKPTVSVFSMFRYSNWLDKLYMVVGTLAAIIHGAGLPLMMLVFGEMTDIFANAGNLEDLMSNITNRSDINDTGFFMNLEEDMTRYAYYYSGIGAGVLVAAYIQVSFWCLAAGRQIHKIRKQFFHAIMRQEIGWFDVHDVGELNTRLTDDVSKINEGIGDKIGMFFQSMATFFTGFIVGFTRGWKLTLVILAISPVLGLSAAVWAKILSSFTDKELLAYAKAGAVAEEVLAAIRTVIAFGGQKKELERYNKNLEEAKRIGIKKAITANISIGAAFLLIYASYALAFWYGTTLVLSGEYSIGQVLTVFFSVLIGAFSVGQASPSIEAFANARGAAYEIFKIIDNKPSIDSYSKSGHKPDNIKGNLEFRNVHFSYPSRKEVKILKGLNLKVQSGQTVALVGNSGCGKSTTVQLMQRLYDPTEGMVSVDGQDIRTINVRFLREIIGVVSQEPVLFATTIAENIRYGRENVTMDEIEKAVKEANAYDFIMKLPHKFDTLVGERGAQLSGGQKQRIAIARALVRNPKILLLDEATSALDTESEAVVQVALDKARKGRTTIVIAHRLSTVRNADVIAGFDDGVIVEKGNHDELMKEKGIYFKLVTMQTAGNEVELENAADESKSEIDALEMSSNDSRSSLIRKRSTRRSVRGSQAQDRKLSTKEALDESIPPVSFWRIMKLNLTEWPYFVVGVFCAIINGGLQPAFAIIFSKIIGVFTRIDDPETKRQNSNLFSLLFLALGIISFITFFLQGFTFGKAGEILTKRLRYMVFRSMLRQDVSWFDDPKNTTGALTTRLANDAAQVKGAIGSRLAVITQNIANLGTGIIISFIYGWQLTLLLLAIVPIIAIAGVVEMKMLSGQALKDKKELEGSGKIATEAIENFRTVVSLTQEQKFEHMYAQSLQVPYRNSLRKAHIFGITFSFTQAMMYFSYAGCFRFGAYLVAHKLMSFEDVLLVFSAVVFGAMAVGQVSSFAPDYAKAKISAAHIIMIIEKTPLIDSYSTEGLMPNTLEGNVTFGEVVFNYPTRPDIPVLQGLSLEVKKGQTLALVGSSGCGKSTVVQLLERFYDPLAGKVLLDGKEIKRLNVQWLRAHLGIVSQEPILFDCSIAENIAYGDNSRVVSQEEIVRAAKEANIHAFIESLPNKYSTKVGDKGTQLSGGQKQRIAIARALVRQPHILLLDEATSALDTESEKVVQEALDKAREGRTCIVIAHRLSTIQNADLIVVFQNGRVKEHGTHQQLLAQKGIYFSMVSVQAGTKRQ
# procedureDetails: P-gp bidirectional transport assay in human Caco-2 cell monolayers
# Assay type: in vitro ADME
# details: Caco-2, pH 7.4

compound: CC1(C)CCC2(CC1)N[C@@H](C(=O)N[C@@H]1CC[C@@H](C(N)=O)OC1)[C@H](c1ccnc(Cl)c1F)[C@]21C(=O)Nc2cc(Cl)ccc21 [milademetan]
unitsLabel: ×10⁻⁶ cm/s
Papp at 120 min: 17

* * *

# assaySystem: CYP3A4 (Homo sapiens, UniProt P08684)
# Sequence (P08684 2-503): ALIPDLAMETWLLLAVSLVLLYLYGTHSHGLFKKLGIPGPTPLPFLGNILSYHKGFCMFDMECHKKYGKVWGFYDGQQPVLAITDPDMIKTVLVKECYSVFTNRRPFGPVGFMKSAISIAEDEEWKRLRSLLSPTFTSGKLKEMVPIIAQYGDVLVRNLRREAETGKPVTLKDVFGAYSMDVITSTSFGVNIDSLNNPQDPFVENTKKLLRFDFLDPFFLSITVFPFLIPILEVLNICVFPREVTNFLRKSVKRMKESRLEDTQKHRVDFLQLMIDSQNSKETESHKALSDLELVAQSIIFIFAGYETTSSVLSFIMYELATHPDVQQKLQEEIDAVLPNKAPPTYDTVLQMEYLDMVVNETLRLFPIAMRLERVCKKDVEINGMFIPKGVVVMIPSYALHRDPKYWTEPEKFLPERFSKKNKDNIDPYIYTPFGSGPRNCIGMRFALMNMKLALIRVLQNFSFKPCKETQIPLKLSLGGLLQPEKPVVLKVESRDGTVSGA
# procedureDetails: CYP3A inhibition
# Type: in vitro ADME
# details: pooled human hepatic microsomes, probe midazolam

molecule: CC1(C)CCC2(CC1)N[C@@H](C(=O)N[C@@H]1CC[C@@H](C(N)=O)OC1)[C@H](c1ccnc(Cl)c1F)[C@]21C(=O)Nc2cc(Cl)ccc21 [milademetan]
KI (inactivation), µM: 60.5

* * *

# procedureDetails: Clinical DDI study U107
# Type: in vivo, human
# details: human, plasma, oral, 100 mg, Cmax, 100 mg alone, 2 h following a full meal (sequence AC, treatment A); geometric mean (CV%)
reportedProperty: Cmax (ng/mL)

chemicalString: CC1(C)CCC2(CC1)N[C@@H](C(=O)N[C@@H]1CC[C@@H](C(N)=O)OC1)[C@H](c1ccnc(Cl)c1F)[C@]21C(=O)Nc2cc(Cl)ccc21
reportedProperty: Cmax
valueMeasured: 675
